B1: SEPHS2 (parent)
chain: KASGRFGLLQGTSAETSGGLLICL

Variants of: B1
assay_summary: protein stability index of a GFP-peptide fusion (GPS, HEK-293T) (PSI 1-6); higher = more stable;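 further: lentivirally expressed fusions sorted by FACS into six bins by GFP to DsRed ratio, PSI derived from sequencing read proportions per bin multiplied by bin number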
condition_info: c terminus: a fixed tail appended
Use protein stability index to assign classes; range list: class 1 = under 2, class 2 = from 2 up to 3, class 3 = 3 and over

| biopolymer_sequence | category |
| --- | --- |
| KASGCFGLLQGTSAETSGGLLICL | class 2 |
| KASGRFGLLSGTSAETSGGLLICL | class 1 |
| KASGRFGLLQGTSAETSGGLLICS | class 1 |
| KASGRFGLLQGTSAETLGGLLICL | class 1 |
| KASGRFGLLQHTSAETSGGLLICL | class 2 |
| EASGRFGLLQGTSAETSGGLLICL | class 2 |
| KASGRFGLLQGTSAETSGGLLICF | class 3 |
| KASGRFGLLQGTSACTSGGLLICL | class 2 |
| KASGRFGLLQGFSAETSGGLLICL | class 3 |
| KASGRFGLLQMTSAETSGGLLICL | class 2 |
| KASGRFGLLQGTSAETSGGLLTCL | class 2 |
| KASGRFGLLQGTSAETSGGLLPCL | class 3 |
| KASGRFGLLQGTSAETSGGPLICL | class 2 |
| KASGRFGLLQGTSAETSGGLLDCL | class 1 |
| KASGRFGLLQGTSAETSGGLGICL | class 1 |
| KASGVFGLLQGTSAETSGGLLICL | class 3 |
| KAPGRFGLLQGTSAETSGGLLICL | class 3 |
| KASGRFGLVQGTSAETSGGLLICL | class 1 |
| KASGRFGLLQGTSAETSGGLLMCL | class 1 |
| KASGRFGGLQGTSAETSGGLLICL | class 3 |
| KAHGRFGLLQGTSAETSGGLLICL | class 3 |
| KASGRFGLLQGTSAETSGGLLSCL | class 2 |
| KASGRFGLLQGTSAETSGGLEICL | class 1 |
| KASQRFGLLQGTSAETSGGLLICL | class 2 |
| KASGRFGLLQGTVAETSGGLLICL | class 3 |
| KASGRFGLLQGTSYETSGGLLICL | class 2 |
| KASGRFGLLQGTSAETSGGLLACL | class 1 |
| KASGRFGLLQGTSAETSGGLLICE | class 3 |
| KASGRFGLLQGTSAETSGTLLICL | class 1 |
| KDSGRFGLLQGTSAETSGGLLICL | class 2 |
| KASGRFGLLQGTSAYTSGGLLICL | class 3 |
| KASGRFGKLQGTSAETSGGLLICL | class 3 |
| KASGRFGLLQGTSAETSGGLLWCL | class 1 |
| KASGRFGLLQGTSAETSGGLLICH | class 1 |
| KASGRFGLLQGTSCETSGGLLICL | class 1 |
